Just for reference, PubChem BioAssay is where these values come from.

test-protocol: anti-His antibody binders, primary screen, artefact control for SMM control protein annotation, biochemical, small-molecule microarray, 635 nm fluorescence (AID 1128);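 note: score merges feature fluorescence with signal-to-noise for each printed compound spot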
experimental-parameters: anti-His Alexa647 antibody binding, higher = more signal
assay-metric: composite z-score

[[record]]
molecule = "C=C(/C(=C/C[C@H](OC(C)=O)c1cccc(OCCO)c1)c1cc(C(=O)OC)ccc1OC)C(C)C"
value = -0.604

[[record]]
molecule = "COc1ccc([Si](C)(C)[C@H]2[C@H](CC(=O)N3Cc4ccccc4C[C@H]3CO)O[C@@]3(C(=O)N(Cc4cccc(N5C(=O)COc6ccccc65)c4)c4ccccc43)[C@@H]2C)cc1"
value = 1.57

[[record]]
molecule = "CCOC(=O)C[C@H]1[C@H](OC(=O)c2ccc(-c3ccccc3)cc2)[C@@H](NC(=O)c2ccccc2)c2cc(OCCCO)ccc2N1C(=O)c1ccccc1"
value = 0.698

[[record]]
molecule = "COCCOC(=O)N1C(=O)[C@@]2(c3cc(C#CCNC(N)=O)ccc31)[C@H](C(=O)NC[C@H](O)c1ccccc1)[C@H]1C(=O)O[C@H](c3ccccc3)[C@H](c3ccccc3)N1[C@@H]2c1ccc(O)cc1"
value = 0.95

[[record]]
molecule = "[N-]=[N+]=Nc1ccccc1[C@H]1OC(c2ccc(OCCCO)cc2)=N[C@@]1(Cc1ccccc1)C(N)=O"
value = 2.59

[[record]]
molecule = "COCCCNC(=O)[C@@]1(Cc2ccccc2)N=C(c2ccc(OCCCO)cc2)O[C@H]1c1ccccc1N=[N+]=[N-]"
value = 0.644

[[record]]
molecule = "CC(C)(C)OC(=O)CC[C@@]12N=C(c3ccc(OCCCO)cc3)O[C@@H]1c1ccccc1N(Cc1ccccc1)C2=O"
value = 2.92

[[record]]
molecule = "COCCOC(=O)N1C(=O)[C@@]2(c3cc(C#CC4(O)CCCCCC4)ccc31)[C@H](c1ccccc1OCCO)N1[C@H](c3ccccc3)[C@H](c3ccccc3)OC(=O)[C@H]1[C@@H]2C(=O)Nc1nc2ccccc2s1"
value = 1.84

[[record]]
molecule = "CCOC(=O)C[C@H]1[C@H](OC(=O)c2ccc(-c3ccccc3)cc2)[C@@H](NC(=O)C2CCCCC2)c2cc(OCCCO)ccc2N1C(=O)c1ccc2ccccc2n1"
value = 0.549

[[record]]
molecule = "Cc1ccc(N2C(=O)c3ccccc3[C@](C)(C(=O)NC3CC3)[C@@H]2c2ccc(CO)cc2)nc1"
value = -0.373

[[record]]
molecule = "C=C1C=C(Br)C2(OCCCO2)[C@H]2OC12 (stereo partly drawn)"
value = -1.16

[[record]]
molecule = "C=CCNC(=O)[C@H]1[C@@H]2C(=O)O[C@@H](c3ccccc3)[C@@H](c3ccccc3)N2[C@@H](c2ccccc2OCCO)[C@]12C(=O)N(C(=O)OCCOC)c1ccc(C#CCCO)cc12"
value = 1.34

[[record]]
molecule = "C=CCC(OC(C)=O)[C@@H]1[C@@H](N(Cc2cc3ccccc3o2)C(=O)c2ccc(-c3ccccc3)cc2)c2cc(OCCCO)ccc2N1C(=O)c1ccc(-c2ccccc2)cc1 (stereo partly drawn)"
value = -0.853

